The reported measurements were obtained from paper PMC9482650.

TARGET_SYSTEM: MAGI1_2, Q96QZ7
Sequence (Q96QZ7 456-580): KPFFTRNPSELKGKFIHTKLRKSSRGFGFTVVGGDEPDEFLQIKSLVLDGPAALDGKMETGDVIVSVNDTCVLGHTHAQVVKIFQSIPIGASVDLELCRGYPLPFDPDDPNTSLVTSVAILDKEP
MEASUREMENT_DESCRIPTION: holdup assay
Parameters: key: below the threshold = too weak to quantify, mostly under pKd 3.1 to 4
SETUP_CONDITIONS: plain residues with an end cap or a label only (N-terminal biotin on a linker: ahx)
REPORTED_ENDPOINT: pKd

- BINDER: "TVICWPGSLV [LNX2, Q8N448]"
  VALUE: 3.85
- BINDER: "HNAFLSVTTV [PDZRN4, Q6ZMN7]"
  VALUE: 3.61
- BINDER: "GYDWGPATDL [TJP3, O95049]"
  VALUE: "below the threshold"
- BINDER: "PSASCAVTAA [PDLIM4, P50479;P50479-2]"
  VALUE: "below the threshold"
- BINDER: "SDSSGQEYSL [KCTD3, Q9Y597]"
  VALUE: "below the threshold"
- BINDER: "RRRKRKRTYL [HPV49-L2, P36762]"
  VALUE: 5.71

input: Consider the binder RAVEEEESRF [PSCDBP, O60759] . State its measured pKd.
output: below the threshold

input: Consider the binder NRKREIFSNF [NHERF2, Q15599] . State its measured pKd.
output: below the threshold

input: Consider the binder ESLLLGPSNF [SHROOM4, Q9ULL8] . State its measured pKd.
output: below the threshold

input: Consider the binder LSDPSVSTVV [GRIN1, Q05586;Q05586-2] . State its measured pKd.
output: below the threshold
